// provenance: ChEMBL document CHEMBL4808177

# PROCEDURE_TEXT: Solubility of the compound at pH 6.8 by high-throughput miniaturized shake flask solubility assay
# Assay type: physicochemical
# CONDITION: buffer
solubility thermodynamic vs 100 µM: at or above is YES, below is NO.

Here's what some known entries look like.
CN(c1nnc(-c2cc(F)c(-c3cn[nH]c3)cc2F)s1)C1CC(C)(C)NC(C)(C)C1 : YES
CN(c1ccc(-c2cc3ccccc3s2)nn1)C1CC(C)(C)NC(C)(C)C1 : YES

# input for lookup
Q) Does the reported solubility thermodynamic for `CN(c1nnc(-c2ccc(-c3cn[nH]c3)c(F)c2F)s1)C1CC(C)(C)NC(C)(C)C1` fall at or above the 100 µM mark?
A) NO

---

# PROCEDURE_TEXT: Apparent permeability across apical to basolateral side in human Caco-2 cells
# Type: ADME, cell-based
Consider the following compounds; for each one, report its Papp A→B.
Answers are plain numbers, in ×10⁻⁶ cm/s.

Here's what some known entries look like.
COc1cc(-n2cccn2)ccc1-c1nnc(N(C)C2CC(C)(C)NC(C)(C)C2)s1 : 13.8
CN(c1nnc(-c2ccc(-c3ccn(C)c(=O)c3)cc2O)s1)C1CC(C)(C)NC(C)(C)C1 : 3.7

Let's switch to this compound now.
Q) What does the record list as Papp A→B for `CN(c1nnc(-c2ccc(-c3cnn(C)c3)cc2O)s1)C1CC(C)(C)NC(C)(C)C1` ?
A) 2.4

---

Consider the following molecules; for each one, report its microsomal CLint.
# PROCEDURE_TEXT: Intrinsic clearance in mouse liver microsomes
# Format: ADME, Microsome
# CONDITION: read-out: CLH
Give bare numbers, in µL/min/mg.

CN(c1nnc(-c2c(O)cc(-c3cn[nH]c3)cc2F)s1)C1CC(C)(C)NC(C)(C)C1 : 50
CN(c1nnc(-c2c(O)cc(-c3cn[nH]c3)cc2Cl)s1)C1CC(C)(C)NC(C)(C)C1 : 116

Q) What does the record list as microsomal CLint for `CN(c1nnc(-c2c(O)cc(-c3cn[nH]c3)c(F)c2F)s1)C1CC(C)(C)NC(C)(C)C1` ?
A) 67

---

# PROCEDURE_TEXT: Apparent permeability across basolateral to apical side in human Caco-2 cells
# Type: ADME, cell-based
Consider the following compounds; for each one, report its Papp B→A.
One number for each entry, in ×10⁻⁶ cm/s.

CN(c1nnc(-c2ccc(-c3ccn(C)c(=O)c3)cc2O)s1)C1CC(C)(C)NC(C)(C)C1 : 6.8
COc1cc(-n2cccn2)ccc1-c1nnc(N(C)C2CC(C)(C)NC(C)(C)C2)s1 : 6.9

Let's switch to this compound now.
Q) What does the record list as Papp B→A for `CN(c1nnc(-c2ccc(-c3cnn(C)c3)cc2O)s1)C1CC(C)(C)NC(C)(C)C1` ?
A) 2.5

---

# PROCEDURE_TEXT: Half life in Sprague-Dawley rat at 1 mg/kg, iv and 3 mg/kg, po measured up to 7 hrs by HPLC-MS/MS analysis
# Format: ADME, organism-based
# CONDITION: in vivo
Consider the following molecules; for each one, report its half-life.
Answers are plain numbers, in h.

Here's what some known entries look like.
COc1cc(-n2cccn2)ccc1-c1nnc(N(C)C2CC(C)(C)NC(C)(C)C2)s1 : 1.9
CN(c1nnc(-c2ccc(-c3cnn(C)c3)cc2O)s1)C1CC(C)(C)NC(C)(C)C1 : 2

Let's switch to this molecule now.
Q) What does the record list as half-life for `CN(c1nnc(-c2ccc(-c3ccn(C)c(=O)c3)cc2O)s1)C1CC(C)(C)NC(C)(C)C1` ?
A) 1.3
